- System under test: Bcl-2-like protein 10 (Homo sapiens) (UniProt Q9HD36)
- Sequence (Q9HD36 whole entry, looked up): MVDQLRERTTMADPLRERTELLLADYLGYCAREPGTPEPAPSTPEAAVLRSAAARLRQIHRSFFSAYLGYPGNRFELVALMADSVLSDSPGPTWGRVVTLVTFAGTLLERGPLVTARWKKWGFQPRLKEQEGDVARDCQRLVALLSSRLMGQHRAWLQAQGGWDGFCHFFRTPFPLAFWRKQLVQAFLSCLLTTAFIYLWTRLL
- Test description: TR3 peptide-Bcl-B binding displacers, biochemical primary FP assay, phenotype converters (AID 1240);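 also: 0% = Bcl-B with tracer peptide and DMSO and 100% = tracer peptide lacking Bcl-B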
- Measurement conditions: GST-Bcl-B / FITC-TR3 peptide fluorescence polarization; stronger effect = higher value; compound at 3.75 mg/L
About 800 (1.6%) of roughly 50,000 compounds showed an effect of 50% or more. For the sample, strong results were picked, then their nearest neighbours and some compounds at random.
Experimental readout: displacement (%)

>>> recorded_result("CNC(=O)COc1ccc(C23CC4CC(CC(C4)C2)C3)cc1")
1.4
>>> recorded_result("COc1ccc(NC(=O)c2cc(-c3ccc(OC)cc3OC)nc3ccccc23)c(OC)c1")
-0.8
>>> recorded_result("C=CCOc1ccc(/C=c2/sc3n(c2=O)C(c2ccc(OC)c(OC)c2)C(C(=O)OC)=C(C)N=3)cc1 (configuration not stated)")
106
>>> recorded_result("C=CCN1C(=O)/C(=C\\c2cc(Br)ccc2OCCOc2cccc(OC)c2)SC1=S")
-43.6
>>> recorded_result("COc1cc(C2NC(=O)c3c(sc4c3CCN(C)C4)N2)cc(OC)c1OC (configuration not stated)")
3.2
>>> recorded_result("CCN1C(=O)/C(=C\\c2cn(CCOc3ccccc3)c3ccccc23)SC1=S")
20.9
>>> recorded_result("COC(=O)c1sccc1NC(=O)c1cc(-c2ccccc2Cl)nc2ccccc12")
22.7
>>> recorded_result("O=C1OC(/C=C/c2ccccc2)=NC/1=C/c1ccccc1")
13.6
>>> recorded_result("O=C1c2ccccc2C(=O)N1c1ncc(Cc2cccc(C(F)(F)F)c2)s1")
-5.8
>>> recorded_result("C=CCN1C(=O)/C(=C\\c2cn(CCOc3cccc(OC)c3)c3ccccc23)SC1=S")
91.7
>>> recorded_result("CCN(CC)c1ccc(/C=C2N=C(/C=C/c3ccccc3)OC/2=O)cc1")
-28
>>> recorded_result("CC(C)CC(NC(=O)c1ccco1)C(=O)O (configuration not stated)")
9.5
>>> recorded_result("COc1ccccc1C/C(N)=N/OC(=O)c1ccc(I)cc1")
10.8
>>> recorded_result("O=C1C2ON(c3ccc(Cl)cc3)C(c3cccs3)C2C(=O)N1c1cccc(C(F)(F)F)c1 (configuration not stated)")
-18.1
>>> recorded_result("COc1ccc(-c2nn(-c3ccccc3)cc2/C=C2\\N=C(c3ccccc3)OC2=O)cc1[N+](=O)[O-]")
93.8
>>> recorded_result("CCOc1c(Br)cc(/C=C2/C(=O)N(c3ccccc3)N=C2C)cc1OC")
-0.6
>>> recorded_result("CCOC(=O)C1=C(C)N=c2s/c(=C\\c3cn(C)c4ccccc34)c(=O)n2C1c1cccs1 (configuration not stated)")
11.5
>>> recorded_result("O=C(N/N=C/c1cccs1)C(=O)NC1CCCCC1")
7.6
>>> recorded_result("O=C1NC(=S)N/C1=C/c1ccc(-c2cccc(Br)c2)o1")
15.5
>>> recorded_result("COc1ccc(/C=C2N=C(/C=C/c3ccccc3)OC/2=O)cc1")
88.6
>>> recorded_result("O=C1C=CC(=O)N1c1ccc(Cl)cc1[N+](=O)[O-]")
-9
>>> recorded_result("N/C(Cc1cccc2ccccc12)=N\\OC(=O)c1cccs1")
98.4
>>> recorded_result("CCOc1cc([N+](=O)[O-])cc(/C=C2/SC(=S)NC2=O)c1O")
14
>>> recorded_result("COc1ccc(C(=O)N2CCN(Cc3ccc4c(c3)OCO4)CC2)cc1OC")
10.6
>>> recorded_result("O=c1[nH]c2ccc(Cl)cc2c(-c2ccccc2)c1N1CCOCC1")
-27.7
>>> recorded_result("COC(=O)C1=C(C)N=c2s/c(=C\\c3ccc(Cl)cc3)c(=O)n2C1c1ccc(OC)c(OC)c1 (configuration not stated)")
9.9
>>> recorded_result("Cc1ccc(-c2ccc(C=C3C(=O)NC(=O)NC3=O)o2)c(Br)c1")
-9.6
>>> recorded_result("COc1ccc(NC(=O)/C(=C\\c2ccccc2OC)NC(=O)c2ccccc2OC)cc1")
3
>>> recorded_result("CN1CCc2c(sc3c2C(=O)NC(c2ccc4ccccc4c2)N3)C1 (configuration not stated)")
83
>>> recorded_result("COc1ccc(/C=C2\\C(=O)NN(c3ccc(Cl)c(Cl)c3)C2=O)cc1OC")
-13.2
>>> recorded_result("CN1CCc2c(sc3c2C(=O)NC(c2ccc(Cl)s2)N3)C1 (configuration not stated)")
4
>>> recorded_result("CCOC(=O)C1=C(C)N=c2s/c(=C\\c3ccc(OC)cc3)c(=O)n2C1c1ccc(OC)cc1 (configuration not stated)")
-5.7
>>> recorded_result("O=C1OC(c2ccccc2I)=N/C1=C\\c1cccc([N+](=O)[O-])c1")
-4
>>> recorded_result("CCOc1c(Br)cc(/C=C2N=C(/C=C/c3ccccc3)OC/2=O)cc1OC")
105
>>> recorded_result("COc1cccc(CN2CCN(Cc3cc(OC)ccc3OC)CC2)c1")
-9
>>> recorded_result("COc1ccc(OC)c(/C=C2N=C(/C=C/c3ccccc3)OC/2=O)c1")
9.6
>>> recorded_result("CCOC(=O)C1=C(C)N=c2s/c(=C\\c3ccc(NC(C)=O)cc3)c(=O)n2C1c1ccccc1 (configuration not stated)")
-24.8
>>> recorded_result("CCOC(=O)C1=C(C)N=c2s/c(=C\\c3ccc(N(C)C)cc3)c(=O)n2C1c1ccc(OC)c(OC)c1 (configuration not stated)")
-38.5
>>> recorded_result("COC(=O)C1=C(C)N=c2s/c(=C/c3ccc(F)cc3)c(=O)n2C1c1ccc(OC)cc1 (configuration not stated)")
5.7
>>> recorded_result("CCOC(=O)C1=C(C)N=c2s/c(=C\\c3cc4c(cc3Cl)OCO4)c(=O)n2C1c1cccs1 (configuration not stated)")
-8.9
>>> recorded_result("O=C1OC(c2ccccc2F)=N/C1=C\\c1cccc([N+](=O)[O-])c1")
9.9
>>> recorded_result("CCCOc1ccc(C=C2C(=O)N(C)C(=O)N(C)C2=O)cc1OC")
1.3
